Molecular target: T1, Soluble CDCP1 extracellular domain (CDCP1-ECD) (SEQ ID NO:30) fused to Streptavidin Binding Protein (SBP) (human, UniProt Q9H5V8 30-663)
T1 construct: also called SBP-CDCP1-ECD
T1 sequence: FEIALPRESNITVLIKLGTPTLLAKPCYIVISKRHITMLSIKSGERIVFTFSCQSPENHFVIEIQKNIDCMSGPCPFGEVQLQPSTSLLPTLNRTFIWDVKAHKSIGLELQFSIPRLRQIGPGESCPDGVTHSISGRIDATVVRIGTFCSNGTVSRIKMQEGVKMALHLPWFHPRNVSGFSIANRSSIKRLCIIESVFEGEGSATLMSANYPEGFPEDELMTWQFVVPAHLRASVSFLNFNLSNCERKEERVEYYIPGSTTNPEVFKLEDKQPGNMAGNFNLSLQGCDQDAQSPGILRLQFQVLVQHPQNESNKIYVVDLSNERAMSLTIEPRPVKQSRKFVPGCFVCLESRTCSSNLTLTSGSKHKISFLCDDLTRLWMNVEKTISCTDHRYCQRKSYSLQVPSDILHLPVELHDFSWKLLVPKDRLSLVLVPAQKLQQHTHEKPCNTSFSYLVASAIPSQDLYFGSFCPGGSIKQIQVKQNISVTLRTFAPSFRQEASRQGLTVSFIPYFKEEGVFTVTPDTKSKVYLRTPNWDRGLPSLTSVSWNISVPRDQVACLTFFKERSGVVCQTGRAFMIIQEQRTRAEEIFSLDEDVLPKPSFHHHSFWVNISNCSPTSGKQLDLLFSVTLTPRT
Test: ELISA on captured SBP-CDCP1-ECD, ratio relative to chimeric CUB4 (chHC4)
Examples of binders with documented relative binding ratio follow.
recorded_endpoint: relative binding ratio

[[record]]
binder = "hHC4-a / hLC4-L (antibody, V domains shown) VH: EVQLVESGGGLVKPGGSLRLSCAASGFTFNSYGMSWVRQAPGKGLEWVSTISSGGSYTYYPDSVKGRFTISRDNAKNSLYLQMNSLRAEDTAVYYCARHPDYDGVWFAYWGQGTLVTVSS VL: EIVLTQSPATLSLSPGERATMSCRASSSVFYLHWYQQKPGQAPRLWIYDTSKLASGIPARFSGSGSGTDFTLTISSLEPEDFAVYYCQQWNSNPPTFGGGTKVEIK"
reported_measurement = 0.55

[[record]]
binder = "hHC4-d / hLC4-K (antibody, V domains shown) VH: EVQLLESGGGLVQPGGSLRLSCAASGFTFNSYGMSWVRQAPGKGLEWVSTISSGGSYTYYPDSVKGRFTISRDNSKNTLYLQMNSLRAEDTAVYYCAKHPDYDGVWFAYWGQGTLVTVSS VL: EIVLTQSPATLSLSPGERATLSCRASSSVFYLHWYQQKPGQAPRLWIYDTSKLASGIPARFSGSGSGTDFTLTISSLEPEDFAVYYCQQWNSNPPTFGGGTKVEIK"
reported_measurement = 0.52

[[record]]
binder = "hHC4-c / hLC4-J (antibody, V domains shown) VH: EVQLVESGGGLVQPGGSLRLSCAASGFTFNSYGMSWVRQAPGKGLEWVATISSGGSYTYYPDSVKGRFTISRDNAKNSLYLQMNSLRAEDTAVYYCARHPDYDGVWFAYWGQGTLVTVSS VL: EIVMTQSPATLSLSPGERATMSCRASSSVFYLHWYQQKPGQAPRLWIYDTSKLASGIPARFSGSGSGTDFTLTISSLQPEDFAVYYCQQWNSNPPTFGGGTKVEIK"
reported_measurement = 0.42

